- Assayed target: Cathepsin D (Homo sapiens, UniProt P07339)
- Sequence (P07339 65-162 limits assumed): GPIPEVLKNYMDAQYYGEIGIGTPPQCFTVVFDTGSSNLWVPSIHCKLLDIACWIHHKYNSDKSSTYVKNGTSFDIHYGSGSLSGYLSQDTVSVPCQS
- Sequence (P07339 169-412 limits assumed): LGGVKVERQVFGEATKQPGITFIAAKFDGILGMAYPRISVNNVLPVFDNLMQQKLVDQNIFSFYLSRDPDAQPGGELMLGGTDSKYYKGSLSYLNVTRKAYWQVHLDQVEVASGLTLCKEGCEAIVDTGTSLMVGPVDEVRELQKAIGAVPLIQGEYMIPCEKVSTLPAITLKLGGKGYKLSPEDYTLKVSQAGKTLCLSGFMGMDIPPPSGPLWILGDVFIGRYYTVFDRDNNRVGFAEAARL
Ranges used to classify IC50: lower range (below 5 nM), middle range (5 nM to below 300 nM), upper range (300 nM or more)

Would you please look over these solved cases?
[[record]]
compound = "CC(=O)N[C@@H](Cc1cc(F)cc(F)c1)[C@H](O)CN[C@H]1CCOc2ccc(CC(C)(C)C#N)cc21"
discrete_label = "middle range"

[[record]]
compound = "CC(=O)N[C@@H](Cc1cc(F)cc(F)c1)[C@H](O)CN[C@H]1CCOc2ccc(OC3CCCO3)cc21 (mixture of isomers)"
discrete_label = "middle range"

[[record]]
compound = "CC(=O)N[C@@H](Cc1cc(F)cc(F)c1)[C@H](O)CN[C@H]1CCN(C)c2ccc(CC(C)(C)C)cc21"
discrete_label = "middle range"

[[record]]
compound = "CCC[C@@]1(C)C[C@H](NC[C@@H](O)[C@H](Cc2cc(F)cc(F)c2)NC(C)=O)c2cc(CC(C)(C)C)ccc2O1"
discrete_label = "lower range"

[[record]]
compound = "CCC[C@]1(C)C[C@H](NC[C@@H](O)[C@H](Cc2cc(F)cc(F)c2)NC(C)=O)c2cc(CC(C)(C)C)ccc2O1"
discrete_label = "lower range"

[[record]]
compound = "CC(=O)N[C@@H](Cc1cc(F)cc(F)c1)[C@H](O)CN[C@H]1CCCc2ccc(C(C)(C)C)cc21"
discrete_label = "middle range"


Which of the defined bands does the recorded IC50 of `CC(=O)N[C@@H](Cc1cc(F)cc(F)c1)[C@H](O)CN[C@H]1CC(C)(C)Oc2ccc(OC(C)(C)C)cc21` sit within?
upper range

Which IC50 band matches `CC(=O)N[C@@H](Cc1cc(F)cc(F)c1)[C@H](O)CN[C@H]1CS(=O)(=O)Cc2ccc(CC(C)(C)C)cc21` ?
upper range
